Where do these numbers come from? They come from patent US12403144B2.

- SYSTEM_TESTED: untagged HECT of NEDD4 wild-type (WT) (E3 ligase) (Homo sapiens)
- Construct: untagged HECT of NEDD4 wild-type (WT) (E3 ligase); made in house
- ASSAY_PROCEDURE: In vitro ubiquitination assay TR-FRET based (self-ubiquitination of NEDD4)
- Type: biochemical
- MEASUREMENT_CONDITIONS: at 11 μM; pre-incubated for 1 hour; AUC of 120 minutes kinetic; read-out: percentages of inhibition (NEDD4)
Structures can show the parent of a compound that is named as a salt.
VALUE_TYPE: inhibition at 11 µM

**Query** Which inhibition at 11 µM value is on record for `CN(C/C=C/C(N)=O)CCCCN1c2ccccc2CCc2ccc(Cl)cc21` ?
**Result** > 50%

**Query** Which inhibition at 11 µM value is on record for C#CCOc1ccc2c(c1)CCc1ccc(Cl)cc1N2CCCCNC/C=C/C(=O)OCC [Compound 100, maleate] ?
**Result** > 50%

**Query** Which inhibition at 11 µM value is on record for COC(=O)/C=C/CN(C)CCCCN1c2cc(Cl)ccc2C(=O)N(Cc2ccccc2)c2ccccc21 [Compound 58, maleate] ?
**Result** > 50%

**Query** Which inhibition at 11 µM value is on record for CCOC(=O)/C=C/CNCCCCN1c2ccccc2C(=O)N(CCO)c2ccc(Cl)cc21 [Compound 50, maleate] ?
**Result** > 50%

---

- SYSTEM_TESTED: His-MPB tagged HECT of HECW2 (E3 ligase) (Homo sapiens)
- Construct: using His-MPB tagged HECT of HECW2 (E3 ligase) instead of untagged HECT of NEDD4 wild-type (WT) (E3 ligase); made in house
- Sequence (Q9P2P5 1237-1572 limits assumed): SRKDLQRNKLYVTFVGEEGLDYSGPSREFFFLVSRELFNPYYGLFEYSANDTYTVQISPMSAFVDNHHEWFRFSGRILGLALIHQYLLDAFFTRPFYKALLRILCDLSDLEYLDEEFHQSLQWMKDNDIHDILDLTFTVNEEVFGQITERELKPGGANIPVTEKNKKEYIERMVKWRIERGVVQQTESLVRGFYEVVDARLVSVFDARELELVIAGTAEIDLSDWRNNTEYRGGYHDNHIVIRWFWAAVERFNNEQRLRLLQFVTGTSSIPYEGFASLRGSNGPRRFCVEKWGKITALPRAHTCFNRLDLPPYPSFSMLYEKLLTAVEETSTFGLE
- ASSAY_PROCEDURE: In vitro ubiquitination assay TR-FRET based, HECW2
- Format: biochemical
- MEASUREMENT_CONDITIONS: read-out: percentage of inhibition (HECW2)
Where a name gives a salt, the structure may show the parent alone.
Measured inhibition at 11 µM of individual entries

Some entries whose results are on file:
{"columns": ["COMPOUND", "inhibition at 11 µM"],
 "data": [
  ["CN(C/C=C/C(=O)OCCOCCOCCOCCNC(=O)CCCC[C@@H]1SC[C@@H]2NC(=O)N[C@@H]21)CCCCN1c2ccccc2CCc2ccc(Cl)cc21", "< 15%"],
  ["CN(C/C=C/C#N)CCCCN1c2cc(Cl)ccc2C(=O)N(Cc2ccccc2)c2ccccc21 [Compound 61, maleate]", "< 5%"],
  ["CCOC(=O)/C=C/CNCCCCN1c2cc(Cl)ccc2C(=O)N(Cc2ccccc2)c2ccccc21 [Compound 56, maleate]", "< 15%"],
  ["CCOC(=O)/C=C/CNCCCCN1c2ccccc2C(=O)N(Cc2ccccc2)c2ccc(Cl)cc21 [Compound 45, maleate]", "< 20%"],
  ["CCOC(=O)/C=C/CNCCCCN1c2ccccc2C(=O)N(C)c2ccc(Cl)cc21 [Compound 29, maleate]", "< 15%"]
]}

**Query** Which inhibition at 11 µM value is on record for CCOC(=O)/C=C/CCNCCCN1c2ccccc2CCc2ccc(Cl)cc21 [Compound 5, maleate] ?
**Result** < 15%

**Query** Which inhibition at 11 µM value is on record for CCOC(=O)/C=C/CNCCCCN1c2ccccc2CCc2ccc(Cl)cc21.O=C(O)/C=C\C(=O)O [Compound 12, maleate] ?
**Result** < 5%

**Query** Which inhibition at 11 µM value is on record for `CON(C)C(=O)/C=C/CN(C)CCCCN1c2ccccc2CCc2ccc(Cl)cc21` ?
**Result** < 5%

---

- SYSTEM_TESTED: untagged HECT of NEDD4 wild-type (WT) (E3 ligase) (Homo sapiens, UniProt P46934)
- Construct: untagged HECT of NEDD4 wild-type (WT) (E3 ligase); made in house
- Sequence (P46934 938-1319 limits assumed): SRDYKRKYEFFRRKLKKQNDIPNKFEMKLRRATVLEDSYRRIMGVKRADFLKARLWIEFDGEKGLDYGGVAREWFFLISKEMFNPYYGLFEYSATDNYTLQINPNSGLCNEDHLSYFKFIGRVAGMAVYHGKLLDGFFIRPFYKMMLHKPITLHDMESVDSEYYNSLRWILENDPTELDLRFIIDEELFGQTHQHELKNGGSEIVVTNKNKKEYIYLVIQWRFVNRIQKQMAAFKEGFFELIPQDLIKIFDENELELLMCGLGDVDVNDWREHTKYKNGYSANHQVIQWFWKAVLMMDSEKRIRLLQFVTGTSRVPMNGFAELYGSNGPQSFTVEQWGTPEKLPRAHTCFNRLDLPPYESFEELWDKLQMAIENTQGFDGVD
- ASSAY_PROCEDURE: In vitro ubiquitination assay TR-FRET based (self-ubiquitination of NEDD4)
- Format: biochemical
- MEASUREMENT_CONDITIONS: at 11 μM; pre-incubated for 1 hour; AUC of 120 minutes kinetic; read-out: percentages of inhibition (NEDD4)
Counter-ions that a name gives are not always drawn.
VALUE_TYPE: inhibition at 11 µM

Some entries whose results are on file:
{"columns": ["COMPOUND", "EXPERIMENTAL_RESULT"],
 "data": [
  ["O=C(/C=C/CNCCCN1c2ccccc2CCc2ccc(Cl)cc21)Nc1ccccc1 [Compound 21, hydrochloride]", "< 30%"],
  ["C#CCOCCOc1ccc2c(c1)CCc1ccc(Cl)cc1N2CCCCN(C)C/C=C/C#N [Compound 90, maleate]", "> 50%"],
  ["C#CCOCCOc1ccc2c(c1)CCc1ccc(Cl)cc1N2CCCCN(C)C/C=C/C(=O)OC [Compound 89, maleate]", "> 50%"],
  ["CCOC(=O)/C=C/CNCCCN1c2cc(Cl)ccc2C(=O)N(CCCO)c2ccccc21 [Compound 49, maleate]", "> 50%"],
  ["CCOC(=O)/C=C/CNCCCN1c2ccccc2NC(=O)c2ccc(C(F)(F)F)cc21 [Compound 25, maleate]", "< 30%"],
  ["CON(C)C(=O)/C=C/CN(C)CCCN1c2ccccc2CCc2ccc(Cl)cc21 [Compound 6]", "> 50%"]
]}

**Query** Quick check: inhibition at 11 µM on untagged HECT of NEDD4 wild-type (WT) (E3 ligase) (Homo sapiens, UniProt P46934), item CCOC(=O)/C=C/CCNCCCN1c2ccccc2CCc2ccc(Cl)cc21 [Compound 5, maleate] ?
**Result** > 50%

**Query** Quick check: inhibition at 11 µM on untagged HECT of NEDD4 wild-type (WT) (E3 ligase) (Homo sapiens, UniProt P46934), item CC(=O)/C=C/CN(C)CCCCN1c2ccccc2CCc2ccc(Cl)cc21 [Compound 10, maleate] ?
**Result** > 50%

---

- SYSTEM_TESTED: untagged HECT of ITCH (E3 ligase) (Homo sapiens)
- Construct: using untagged HECT of ITCH (E3 ligase) instead of untagged HECT of NEDD4 wild-type (WT) (E3 ligase); made in house
- Sequence (Q96J02 569-903 limits assumed): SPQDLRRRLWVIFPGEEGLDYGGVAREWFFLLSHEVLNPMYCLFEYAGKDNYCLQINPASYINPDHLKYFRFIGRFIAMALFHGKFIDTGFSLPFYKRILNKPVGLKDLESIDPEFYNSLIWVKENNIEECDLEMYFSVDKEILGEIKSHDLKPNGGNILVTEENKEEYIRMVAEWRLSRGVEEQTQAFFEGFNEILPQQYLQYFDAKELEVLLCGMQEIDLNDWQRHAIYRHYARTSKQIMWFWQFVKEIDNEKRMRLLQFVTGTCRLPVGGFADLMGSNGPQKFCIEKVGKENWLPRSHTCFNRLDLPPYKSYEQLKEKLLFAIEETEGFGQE
- ASSAY_PROCEDURE: In vitro ubiquitination assay TR-FRET based, ITCH
- Format: biochemical
- MEASUREMENT_CONDITIONS: read-out: percentage of inhibition (ITCH)
Where a name gives a salt, the structure may show the parent alone.
Measured inhibition at 11 µM of individual entries

Some entries whose results are on file:
{"columns": ["COMPOUND", "inhibition at 11 µM"],
 "data": [
  ["CN(C/C=C/C#N)CCCCN1c2cc(Cl)ccc2C(=O)N(Cc2ccccc2)c2ccccc21 [Compound 61, maleate]", "< 5%"],
  ["CN(C/C=C/C(=O)OCCOCCOCCOCCNC(=O)CCCC[C@@H]1SC[C@@H]2NC(=O)N[C@@H]21)CCCCN1c2ccccc2CCc2ccc(Cl)cc21", "< 15%"]
]}

**Query** Which inhibition at 11 µM value is on record for `CON(C)C(=O)/C=C/CN(C)CCCCN1c2ccccc2CCc2ccc(Cl)cc21` ?
**Result** < 20%

**Query** Which inhibition at 11 µM value is on record for CCOC(=O)/C=C/CNCCCCN1c2ccccc2C(=O)N(Cc2ccccc2)c2ccc(Cl)cc21 [Compound 45, maleate] ?
**Result** < 5%

**Query** Which inhibition at 11 µM value is on record for CCOC(=O)/C=C/CNCCCCN1c2cc(Cl)ccc2C(=O)N(Cc2ccccc2)c2ccccc21 [Compound 56, maleate] ?
**Result** < 15%

**Query** Which inhibition at 11 µM value is on record for CONC(=O)/C=C/CN(C)CCCCN1c2ccccc2CCc2ccc(Cl)cc21 [Compound 85, maleate] ?
**Result** < 25%

**Query** Which inhibition at 11 µM value is on record for COC(=O)/C=C/CN(C)CCCCN1c2cc(Cl)ccc2C(=O)N(Cc2ccccc2)c2ccccc21 [Compound 58, maleate] ?
**Result** < 15%

---

- SYSTEM_TESTED: untagged HECT of NEDD4L (E3 ligase) (Homo sapiens, UniProt Q96PU5)
- Construct: using untagged HECT of NEDD4L (E3 ligase) instead of untagged HECT of NEDD4 wild-type (WT) (E3 ligase); made in house; host or cells: bacteria (printed for the NEDD4L HECT of the western-blot assay; not repeated here)
- Sequence (Q96PU5 594-975 limits assumed): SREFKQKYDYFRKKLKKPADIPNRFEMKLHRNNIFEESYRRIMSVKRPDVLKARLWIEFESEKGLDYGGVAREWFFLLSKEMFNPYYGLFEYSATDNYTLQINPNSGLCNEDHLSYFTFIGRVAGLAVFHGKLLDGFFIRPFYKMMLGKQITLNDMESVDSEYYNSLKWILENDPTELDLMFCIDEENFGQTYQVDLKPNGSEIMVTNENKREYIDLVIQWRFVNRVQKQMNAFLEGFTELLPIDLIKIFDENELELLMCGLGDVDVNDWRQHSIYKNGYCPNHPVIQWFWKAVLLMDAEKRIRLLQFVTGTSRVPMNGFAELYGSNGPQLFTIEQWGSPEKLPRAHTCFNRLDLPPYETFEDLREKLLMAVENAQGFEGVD
- ASSAY_PROCEDURE: In vitro ubiquitination assay TR-FRET based, NEDD4L
- Assay type: biochemical
- MEASUREMENT_CONDITIONS: read-out: percentage of inhibition (NEDD4L)
Counter-ions that a name gives are not always drawn.
VALUE_TYPE: inhibition at 11 µM

{"columns": ["COMPOUND", "VALUE_TYPE", "EXPERIMENTAL_RESULT"],
 "data": [
  ["CN(C/C=C/C#N)CCCCN1c2cc(Cl)ccc2C(=O)N(Cc2ccccc2)c2ccccc21 [Compound 61, maleate]", "inhibition at 11 µM", "< 5%"],
  ["CCOC(=O)/C=C/CNCCCCN1c2ccccc2C(=O)N(Cc2ccccc2)c2ccc(Cl)cc21 [Compound 45, maleate]", "inhibition at 11 µM", "≤ 20%"]
]}

**Query** Which inhibition at 11 µM value is on record for COC(=O)/C=C/CN(C)CCCCN1c2cc(Cl)ccc2C(=O)N(Cc2ccccc2)c2ccccc21 [Compound 58, maleate] ?
**Result** < 5%

**Query** Which inhibition at 11 µM value is on record for CCOC(=O)/C=C/CNCCCCN1c2cc(Cl)ccc2C(=O)N(C)c2ccccc21 [Compound 42, maleate] ?
**Result** < 15%
